biological target: human cannabinoid receptor 1 (huCB1), full length, expressed on cells (human, UniProt P21554 1-472); assay: cell-based or functional assay
Sequence (P21554 whole entry): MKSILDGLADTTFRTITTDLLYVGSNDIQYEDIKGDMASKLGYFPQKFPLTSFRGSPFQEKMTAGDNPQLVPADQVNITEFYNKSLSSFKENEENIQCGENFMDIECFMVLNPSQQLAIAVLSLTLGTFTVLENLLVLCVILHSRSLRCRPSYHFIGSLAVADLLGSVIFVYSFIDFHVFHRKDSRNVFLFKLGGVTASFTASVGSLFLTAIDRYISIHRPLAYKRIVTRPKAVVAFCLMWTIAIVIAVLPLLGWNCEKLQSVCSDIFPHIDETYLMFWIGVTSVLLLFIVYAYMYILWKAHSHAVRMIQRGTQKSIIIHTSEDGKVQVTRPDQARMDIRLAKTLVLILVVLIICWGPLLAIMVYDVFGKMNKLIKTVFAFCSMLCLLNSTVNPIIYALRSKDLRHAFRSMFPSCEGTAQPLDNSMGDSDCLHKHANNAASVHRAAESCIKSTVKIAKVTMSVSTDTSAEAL
Record rule met whenever n = 1 IC50, -fold vs Rimo is at 2 fold vs Rimonabant or higher; record rule not met when lower.

Previously resolved entries follow.
| BINDER | LABEL VALUE |
| --- | --- |
| LIBC528169-1 (antibody, V domains shown) VH: QVQLQESGPGLVKPSQTLSLTCTVSGGSIRRGGDYWSWIRQHPGKGLEWIGHIYQSGSTKYNPSFEDRATISVNTYKNQFSLKLSSVTAADTAVYYCARDYDILTGYSYYYYGMDVWGQGTTVTVSS VL: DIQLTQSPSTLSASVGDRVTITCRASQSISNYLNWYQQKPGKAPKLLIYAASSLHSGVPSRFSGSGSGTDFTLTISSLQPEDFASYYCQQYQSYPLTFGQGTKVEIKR | rule met |
| LIBC523969-1 (antibody, V domains shown) VH: QVQLQESGPGLVKPSQTLSLTCTVSGGSIRRGGDYWSWIRQHPGKGLEWIGHIYQTGQTKYNPNLKGRATISVNTYKNQFSLKLSSVTAADTAVYYCARDYDILTGYSYYYYGMDVWGQGTTVTVSS VL: DIVMTQSPLSLPVTPGEPASISCRSSQSLLSSTGANYLDWYLQKPGQSPQLLIYQGSNRASGVPDRFSGSGSGTDFTLKISRVEAEDVGVYYCRQAVGLPRTFGQGTKVEIKR | rule not met |
| LIBC523813-1 (antibody, V domains shown) VH: QVQLQESGPGLVKPSQTLSLTCTVSGGSIRRGGDYWSWIRQHPGKGLEWIGHVYYTGQTAYNPKFKDRATISVKTYKNQFSLKLSSVTAADTAVYYCARDYDILTGYSYYYYGMDVWGQGTTVTVSS VL: DIVMTQSPLSLPVTPGEPASISCRSSQSLLSSSGANYVDWYLQKPGQSPQLLIYLGSNRASGVPDRFSGSGSGTDFTLKISRVEAEDVGVYYCMQARGIPRTFGQGTKVEIKR | rule met |
| LIBC528131-1 (antibody, V domains shown) VH: QVQLQESGPGLVKPSQTLSLTCTVSGGSIRRGGDYWSWIRQHPGKGLEWIGHIYQTGQTAYNPNLEGRATISVNTYKNQFSLKLSSVTAADTAVYYCARDYDILTGYSYYYYGMDVWGQGTTVTVSS VL: EIVLTQSPATLSLSPGERATLSCRASQSVSSYLGWYQQKPGQAPRLLIYGASSRATGIPDRFSGSGSGTDFTLTISRLEPEDFAVYYCQQYGSSPRTFGQGTKVEIKR | rule not met |

Can LIBC528141-1 (antibody, V domains shown) VH: QVQLQESGPGLVKPSQTLSLTCTVSGGSIRRGGDYWSWIRQHPGKGLEWIGHVYQTGSTKYNPRFKGRATISVNTYKNQFSLKLSSVTAADTAVYYCARDYDILTGYSYYYYGMDVWGQGTTVTVSS VL: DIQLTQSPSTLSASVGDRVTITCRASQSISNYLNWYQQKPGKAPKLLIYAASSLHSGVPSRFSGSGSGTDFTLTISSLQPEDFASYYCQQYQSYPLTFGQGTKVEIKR be said to have n = 1 IC50, -fold vs Rimo at or above 2 fold vs Rimonabant? rule not met
